measurement notes: Metabolic stability in human liver microsomes assessed as compound remaining after 60 mins in presence of NADPH
Type: ADME, Microsome
condition context: read-out: Stability
// reported remaining at 1 h per item
measured property: remaining at 1 h (%)

>>> print(df.to_string())
                               smiles_entry  unit_info  endpoint_result
0  Oc1ccc2c(c(-c3nnco3)cn2-c2ccc(Br)cc2)c1CN1CCCC1          %               53
1  Oc1ccc2c(c(-c3nnco3)cn2-c2ccc(Br)cc2)c1CN1CCCCC1          %               55
2  CC(=O)c1cn(-c2ccc(-c3ccccc3)s2)c2ccc(O)c(CN3CCC3)c12          %             68.6
3  CC(=O)c1c(C)n(-c2ccc(Br)cc2)c2ccc(O)c(CN3CCCCC3)c12          %             47.3
4  Oc1ccc2c(c(-c3nnco3)cn2-c2ccc(Br)cc2)c1CN1CCC1          %             61.7
5  CC(=O)c1c(C)n(-c2ccc(C3CCNCC3)cc2)c2ccc(O)c(CN3CCCCC3)c12          %             11.3

###

measurement notes: Metabolic stability in human liver assessed as intrinsic clearance
Type: ADME, tissue-based
condition context: read-out: CLH
CLint scaled below 20 mL/min/kg gives false (0); CLint scaled at or above it gives true (1).

In [3]: df
Out[3]:
                               smiles_entry  qualitative_label
0  Oc1ccc2c(c(-c3nnco3)cn2-c2ccc(Br)cc2)c1CN1CCC1          false (0)
1  Oc1ccc2c(c(-c3nnco3)cn2-c2ccc(Br)cc2)c1CN1CCCC1          false (0)
2  Oc1ccc2c(c(-c3nnco3)cn2-c2ccc(Br)cc2)c1CN1CCCCC1          false (0)
3  CC(=O)c1c(C)n(-c2ccc(C3CCNCC3)cc2)c2ccc(O)c(CN3CCCCC3)c12           true (1)
4  CC(=O)c1cn(-c2ccc(-c3ccccc3)s2)c2ccc(O)c(CN3CCC3)c12          false (0)
5  CC(=O)c1c(C)n(-c2ccc(Br)cc2)c2ccc(O)c(CN3CCCCC3)c12           true (1)

###

measurement notes: Metabolic stability in human liver microsomes assessed as half life
Type: ADME, Microsome
// reported half-life per item
measured property: half-life (h)

In [3]: df
Out[3]:
                               smiles_entry  endpoint_result
0  Oc1ccc2c(c(-c3nnco3)cn2-c2ccc(Br)cc2)c1CN1CCCCC1              1.1
1  Oc1ccc2c(c(-c3nnco3)cn2-c2ccc(Br)cc2)c1CN1CCCC1             1.09
2  Oc1ccc2c(c(-c3nnco3)cn2-c2ccc(Br)cc2)c1CN1CCC1             1.67
3  CC(=O)c1cn(-c2ccc(-c3ccccc3)s2)c2ccc(O)c(CN3CCC3)c12             2.17
4  CC(=O)c1c(C)n(-c2ccc(C3CCNCC3)cc2)c2ccc(O)c(CN3CCCCC3)c12            0.345
5  CC(=O)c1c(C)n(-c2ccc(Br)cc2)c2ccc(O)c(CN3CCCCC3)c12            0.967

Reference for the values: ChEMBL document CHEMBL6078722
